Source of measurements: patent US9868733B2

study_target: recombinant human AMPK complex 7 (containing α2β1γ1) (Homo sapiens, UniProt P54646+Q9Y478)
Sequence (P54646 whole entry): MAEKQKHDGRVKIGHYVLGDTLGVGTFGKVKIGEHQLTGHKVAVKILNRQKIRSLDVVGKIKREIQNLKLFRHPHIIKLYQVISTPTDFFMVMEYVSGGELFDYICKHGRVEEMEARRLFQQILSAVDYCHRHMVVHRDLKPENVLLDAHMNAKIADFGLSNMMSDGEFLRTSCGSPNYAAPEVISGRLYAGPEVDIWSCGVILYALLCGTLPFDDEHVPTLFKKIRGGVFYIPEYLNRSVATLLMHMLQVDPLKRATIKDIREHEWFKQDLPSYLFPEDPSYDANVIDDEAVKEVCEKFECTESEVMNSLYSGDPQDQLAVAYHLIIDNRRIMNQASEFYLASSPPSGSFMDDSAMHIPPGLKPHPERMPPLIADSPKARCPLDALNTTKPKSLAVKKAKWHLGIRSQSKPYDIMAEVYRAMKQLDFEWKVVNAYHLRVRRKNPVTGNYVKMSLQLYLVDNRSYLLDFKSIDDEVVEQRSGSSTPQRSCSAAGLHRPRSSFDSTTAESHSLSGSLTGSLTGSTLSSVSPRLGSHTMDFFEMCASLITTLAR
Sequence (Q9Y478 whole entry): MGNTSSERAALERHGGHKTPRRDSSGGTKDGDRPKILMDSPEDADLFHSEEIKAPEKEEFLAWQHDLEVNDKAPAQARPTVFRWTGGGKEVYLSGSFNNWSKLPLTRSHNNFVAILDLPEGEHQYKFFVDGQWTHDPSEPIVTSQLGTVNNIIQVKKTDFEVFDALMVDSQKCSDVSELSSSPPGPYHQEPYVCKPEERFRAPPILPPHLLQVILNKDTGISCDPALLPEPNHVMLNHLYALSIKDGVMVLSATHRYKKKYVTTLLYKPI
Sequence (P54619 whole entry partner): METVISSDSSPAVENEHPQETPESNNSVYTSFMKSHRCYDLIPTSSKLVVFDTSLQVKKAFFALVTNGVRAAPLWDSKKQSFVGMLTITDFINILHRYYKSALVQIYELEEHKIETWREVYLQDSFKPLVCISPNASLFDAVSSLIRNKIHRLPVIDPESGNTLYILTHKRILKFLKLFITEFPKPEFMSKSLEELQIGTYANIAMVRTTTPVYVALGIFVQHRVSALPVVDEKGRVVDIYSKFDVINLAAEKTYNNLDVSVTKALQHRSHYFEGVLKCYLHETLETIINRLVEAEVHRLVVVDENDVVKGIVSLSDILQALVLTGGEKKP
protocol_notes: in vitro AMPK activation assay (AMPKSAMSF)
Assay type: biochemical
test_conditions: recombinant human AMPK complex 7 (α2β1γ1); 10-point titration expressed as % maximum AMP activation
Kind request: treat 300% as inclusive, so Emax at 300% or higher is 1, anything lower is 0.

> print(dat)
                               smiles.entry                              study.target  discrete.label
1  O=C(O)[C@H]1OC[C@@H](Oc2nc3nc(-c4ccc(-c5ccccc5)cc4)c(Cl)cc3[nH]2)[C@@H]1O  recombinant human AMPK complex 7 (containing α2β1γ1) (Homo sapiens, UniProt P54646+Q9Y478)               1
2  CC(C)(O)Cn1cc2c(n1)CN(c1ccc(-c3nc4nc(O[C@@H]5CO[C@H](CO)[C@H]5O)[nH]c4cc3Cl)cc1)C2  recombinant human AMPK complex 7 (containing α2β1γ1) (Homo sapiens, UniProt P54646+Q9Y478)               1
3  CC(C)(O)Cc1cnn(-c2ccc(-c3ccc(-c4nc5nc(O[C@@H]6CO[C@H](CO)[C@H]6O)[nH]c5cc4Cl)cc3)cc2)c1  recombinant human AMPK complex 7 (containing α2β1γ1) (Homo sapiens, UniProt P54646+Q9Y478)               0
4  OC[C@H]1OC[C@@H](Oc2nc3nc(-c4ccc(-c5ccc(N6CCOCC6)cc5)cc4)c(Cl)cc3[nH]2)[C@@H]1O  recombinant human AMPK complex 7 (containing α2β1γ1) (Homo sapiens, UniProt P54646+Q9Y478)               0

Attention now turns to another entry.
State whether the measured Emax reaches 300%, counting equality as reaching it, for "OC[C@H]1OC[C@@H](Oc2nc3nc(-c4ccc(Br)cc4)c(Cl)cc3[nH]2)[C@@H]1O"
0

###

study_target: recombinant human AMPK complex 7 (containing α2β1γ1) (Homo sapiens, UniProt P54646+Q9Y478)
protocol_notes: in vitro AMPK activation assay (AMPKSAMSF)
Type: biochemical
test_conditions: recombinant human AMPK complex 7 (α2β1γ1); 10-point titration expressed as % maximum AMP activation
In this section we review reported Emax values for a set of molecules.
Report the value in % with no unit label.

Record request: Emax value, item "OC[C@H]1OC[C@@H](Oc2nc3nc(-c4ccc(-c5ccc(-n6cccn6)cc5)cc4)c(Cl)cc3[nH]2)[C@@H]1O"
315

Ok, now "OC[C@H]1OC[C@@H](Oc2nc3nc(-c4ccc(-c5ccc(-n6cnnn6)cc5)cc4)c(Cl)cc3[nH]2)[C@@H]1O"
282

Queued: "OC[C@H]1OC[C@@H](Oc2nc3nc(-c4ccc(-c5cccc(F)c5)cc4)c(Cl)cc3[nH]2)[C@@H]1O"
231

###

study_target: recombinant human AMPK complex 7 (containing α2β1γ1) (Homo sapiens, UniProt P54646+Q9Y478)
protocol_notes: in vitro AMPK activation assay (AMPKSAMSF)
Format: biochemical
test_conditions: recombinant human AMPK complex 7 (α2β1γ1); 10-point titration expressed as % maximum AMP activation
As shown below, each of these compounds has a reported Emax value.
Return type: number; implicit unit %.

Query: Emax; subject: OC[C@H]1OC[C@@H](Oc2nc3nc(-c4ccc(-c5ccc(-n6nccn6)cc5)cc4)c(Cl)cc3[nH]2)[C@@H]1O [Example 4]
206

Same for OC[C@H]1OC[C@@H](Oc2nc3nc(-c4ccc(-c5ccc(-n6cncn6)cc5)cc4)c(Cl)cc3[nH]2)[C@@H]1O [Example 5]
261

// repeat for OC[C@H]1OC[C@@H](Oc2nc3nc(-c4ccc(-c5ccccc5)cc4)c(Cl)cc3[nH]2)[C@@H]1O [Example 3] and report
338

Similarly, OC[C@H]1OC[C@@H](Oc2nc3nc(-c4ccc(-c5ccc(-n6cccn6)nc5)cc4)c(Cl)cc3[nH]2)[C@@H]1O [Example 1] ?
188

Subsequent entry: C[C@]1(O)[C@@H](CO)OC[C@H]1Oc1nc2nc(-c3ccc(-c4ccccc4)cc3)c(Cl)cc2[nH]1 [Example 14]
203

// query: N#CCCn1nnnc1-c1ccc(-c2ccc(-c3nc4nc(O[C@@H]5CO[C@H](CO)[C@H]5O)[nH]c4cc3Cl)cc2)cc1 [Example 20]
242

Note, next up: OC[C@H]1OC[C@@H](Oc2nc3nc(-c4ccc(-c5ccc(F)cc5)cc4)c(Cl)cc3[nH]2)[C@@H]1O [Example 23]
231

Moving on to CC(C)(F)Cn1cc2c(n1)CN(c1ccc(-c3nc4nc(O[C@@H]5CO[C@H](CO)[C@H]5O)[nH]c4cc3Cl)cc1)C2 [Example 9]
294
